System tested: BTK (Homo sapiens, UniProt Q06187)
Sequence (Q06187 402-655 limits assumed): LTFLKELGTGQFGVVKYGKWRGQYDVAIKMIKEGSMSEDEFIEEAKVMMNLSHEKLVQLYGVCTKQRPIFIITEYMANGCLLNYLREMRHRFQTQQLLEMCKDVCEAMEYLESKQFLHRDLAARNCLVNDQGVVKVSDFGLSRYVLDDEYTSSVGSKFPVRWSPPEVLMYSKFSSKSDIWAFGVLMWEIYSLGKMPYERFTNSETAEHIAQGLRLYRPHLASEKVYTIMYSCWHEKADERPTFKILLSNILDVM
Run description: biochemical
Assay context: read-out: BTK inhibition (%), 0.75 uM BTK, […] probe 3l, 15 min preincubation
Entries and their inhibition at 10 µM
Form entry: value (%) — number only.

Sample records with inhibition at 10 µM:
{"Molecule": "O=C[C@H](O)[C@H]1OC(=O)[C@@H](O)[C@H]1O", "inhibition at 10 µM / %": -1.4}
{"Molecule": "CN(C)C(=O)c1ccc(S(=O)(=O)c2ccc(NC(=O)[C@@](C)(O)C(F)(F)F)c(Cl)c2)cc1", "inhibition at 10 µM / %": 3.1}

q: I am curious: what inhibition at 10 µM value has been reported for COc1ccc(-c2cc(=O)c3c(O)cc(O[C@@H]4O[C@H](CO[C@@H]5O[C@@H](C)[C@H](O)[C@@H](O)[C@H]5O)[C@@H](O)[C@H](O)[C@H]4O)cc3o2)cc1 ?
a: 14.7

q: I am curious: what inhibition at 10 µM value has been reported for CC(=O)SCC(Cc1ccccc1)C(=O)NCC(=O)OCc1ccccc1 (stereo not shown) ?
a: 3.1

Value source: paper PMC8041284
